- protocolNotes: chemical genetic growth profiling, strain panel (AID 1159580);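 further: tested at 20 µM; growth read once vehicle control cultures reached saturation at 30 °C; 1 = growth at the plate median or of vehicle wells; lower values mean less growth of the strain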
- details: S. cerevisiae deletion strains, growth OD, locus YMR058W, strain fet3, stronger effect = lower value
About 2,000 (36%) of roughly 5,500 compounds were called active. About 18% were inconclusive and are not listed. The list shows a part of the results.
experimentalReadout: normalized growth
The answer should be a number; do not append a unit.

[in] Give its normalized growth value. Item: CCC(=O)O[C@H]1CCC2C3CCc4cc(O)ccc4C3CC[C@@]21C (some centres undefined)
[out] 0.977

[in] Data request, read-out normalized growth, for c1ccc2c(c1)[nH]c1cnccc12
[out] 0.996

[in] Please give the measured normalized growth for this molecule: CC(=O)OC1CCC2C3CCc4cc(O)ccc4C3CCC12C (centres undefined)
[out] 0.983

[in] Data request, read-out normalized growth, for CCOC(=O)C1=C(C)NC(C)=C(C(=O)OC)C1c1cccc([N+](=O)[O-])c1 (centres undefined)
[out] 1.02

[in] Given the molecule CC(C)(O)CC[C@@H](O)[C@](C)(O)C1CC[C@@]2(O)C3=CC(=O)C4C[C@@H](O)[C@@H](O)C[C@]4(C)C3CC[C@]12C (some centres undefined) , what is its reported normalized growth?
[out] 1

[in] Entry under review: CC(=O)Oc1ccc2c(c1)CCC1C2CCC2(C)C1CC(OC(C)=O)C2OC(C)=O (centres undefined) . Reported normalized growth?
[out] 1

[in] Return reported normalized growth; argument: C[C@]12CCC3c4ccc(O)cc4CCC3C1CC[C@@H]2OC(=O)CCC1CCCC1 (some centres undefined)
[out] 1.01

[in] Which normalized growth value is on record for Cc1nccc2c1[nH]c1ccccc12 ?
[out] 0.983

[in] Suppose we examine the molecule CCCCC(=O)O[C@H]1CCC2C3CCc4cc(O)ccc4C3CC[C@@]21C (some centres undefined) ; what normalized growth value has been reported?
[out] 1.02
